Molecular target: T1, ScZur (Streptomyces coelicolor M145, UniProt Q9L2H5 1-139)
T1 sequence: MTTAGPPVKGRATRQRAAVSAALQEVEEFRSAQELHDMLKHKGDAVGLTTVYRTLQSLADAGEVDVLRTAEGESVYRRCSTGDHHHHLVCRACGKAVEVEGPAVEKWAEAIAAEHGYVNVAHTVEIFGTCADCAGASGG
Assay: EMSA
measured parameter: Kd (nM)
Your answer is read as nM, so omit the unit and give the number.

Looking up zitB Zur-box 33 bp (-68 to -36) (dsDNA) DNA 1: CAAGGCACATGACAACGGTGTTCAGTGCCGCGT DNA 2: ACGCGGCACTGAACACCGTTGTCATGTGCCTTG , I see its Kd listed as 34
